protocolDetails: The plasma half-life in dogs
Format: ADME, organism-based, Canis lupus familiaris
conditionInfo: dog
parameter: half-life

Param item = COC(=O)C1(c2ccccc2)CCN(CCCNC(=O)N2C(=O)NC3=C(C(=O)OC3)C2c2ccc(F)c(F)c2)CC1 (single isomer, unassigned; (+)) ; retrieve measured half-life. ~1.5 h

// data source = ChEMBL document CHEMBL1133050
